# Assay target: Indoleamine 2,3-dioxygenase 1 (Homo sapiens)
# Sequence (P14902 whole entry): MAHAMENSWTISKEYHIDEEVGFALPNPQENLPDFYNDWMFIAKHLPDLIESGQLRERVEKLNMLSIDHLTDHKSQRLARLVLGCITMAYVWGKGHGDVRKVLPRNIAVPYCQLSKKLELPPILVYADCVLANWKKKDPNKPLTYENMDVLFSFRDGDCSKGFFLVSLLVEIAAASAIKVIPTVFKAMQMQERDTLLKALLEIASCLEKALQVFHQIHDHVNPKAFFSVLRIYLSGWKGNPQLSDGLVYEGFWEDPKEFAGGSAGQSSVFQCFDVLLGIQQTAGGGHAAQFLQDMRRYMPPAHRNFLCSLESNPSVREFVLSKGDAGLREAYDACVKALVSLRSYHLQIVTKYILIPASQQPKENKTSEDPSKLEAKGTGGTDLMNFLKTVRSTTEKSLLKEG
# Method: Inhibition of human recombinant indoleamine-2,3-dioxygenase expressed in Escherichia coli BL21 using L-tryptophan as substrate after 30 mins by microplate reader analysis
Readout type: IC50

Compound smiles | IC50
On1nnc2ccccc21 | Not Active
Cc1ccc(-c2c[nH]nn2)cc1 | Not Active
COC(=O)c1ccc(-c2cnn[nH]2)cc1 | Not Active
Brc1nn[nH]c1-c1ccccc1 | Not Active

Enquiry: Which IC50 reading was recorded for the compound Brc1ccc(-c2nn[nH]n2)cc1 ?
Return: Not Active

Enquiry: Which IC50 reading was recorded for the compound Clc1nn[nH]c1-c1ccccc1 ?
Return: Not Active
